Where do the numbers come from? From patent US20240189266A1.

assay: Plasma Lac-Phe level after intraperitoneal injection; type: in vivo; conditions: C57BL/6J DIO, mouse, 50 mg/kg IP, DIO mice, mean±SEM, read-out: plasma levels 30 min post injection
readout_label: concentration at 30 min (µM)
One number for each entry, in µM.

Indicate the recorded concentration at 30 min value for this molecule: C[C@H](O)C(=O)N[C@@H](Cc1ccccc1)C(=O)O [Lac-Phe, N-lactoyl-phenylalanine]
3.8
